- TGT: CRF receptor (Rattus norvegicus, UniProt P35353)
- Construct: the cerebral cortex was removed and the tissue homogenized; from tissue; host or cells: cerebral cortex membranes of male Sprague-Dawley rats
- ASSAY PROCEDURE: In vitro receptor binding: inhibition of specific binding of [125I]tyrosine-oCRF to rat cerebral cortex membranes
- CONDITION LABEL: Table I, Formula I; [125I]Tyr-oCRF 50-100 pM; 2 hours at room temperature; read-out: Inhibition of CRF Binding, Rat Cerebral Cortex Membrane, IC50
METRIC: IC50 (µM)

The following molecules have reported results that may help.
>>> recorded_number("CCn1c(C)c(SC#N)c(=O)n1-c1cccc(Cl)c1")
7.4
>>> recorded_number("Cn1c(N)c(SC#N)c(=O)n1-c1ccccc1")
14.4
>>> recorded_number("CC(=O)Sc1c(C)n(C)n(-c2ccccc2)c1=O")
13.7
>>> recorded_number("CCc1c(SC#N)c(=O)n(CC)n1CC")
67
>>> recorded_number("Cc1c(SC#N)c(=O)n(-c2ccc3ccccc3c2)n1C")
3.8
>>> recorded_number("CCc1c(SC#N)c(=O)n(-c2ccc(OC)cc2)n1C")
9.3
>>> recorded_number("Cc1c(SC#N)c(=O)n(C2CCCCC2)n1C")
15
>>> recorded_number("Cc1c(SC#N)c(=O)n(-c2ccccc2)n1C")
16

(1) Cn1c(CN2CCOCC2)c(SC#N)c(=O)n1-c1ccccc1
(2) CCn1c(C)c(SC#N)c(=O)n1Cc1ccccc1
Prompt: Given the listed items, does 1 or 2 have the lesser reported IC50? Let me know the label of the one you choose.
Completion: 2
(2: 17 µM, 1: 39.8 µM)

(a) Cc1ccc(-n2c(=O)c(SC#N)c(C)n2C)cc1
(b) CCn1c(C)c(SC#N)c(=O)n1-c1ccc(S(C)(=O)=O)cc1
Prompt: Identify the entry with the larger IC50. Options: a and b Write the label of whichever entry you select.
Completion: b

(I) CCn1c(C)c(SC#N)c(=O)n1-c1ccccc1
(II) CCc1c(SC#N)c(=O)n(-c2ccccc2)n1C
Prompt: Which value of IC50 is numerically greater: that of I or that of II ? Answer by stating the label of the chosen item.
Completion: II

(I) Cc1c(SC#N)c(=O)n(-c2cccc(C#N)c2)n1C
(II) CCn1c(C)c(SC#N)c(=O)n1-c1ccc([N+](=O)[O-])cc1
Prompt: For the pair I and II , which member has the lower IC50 number? Answer = label.
Completion: II

###

- TGT: CRF-stimulated adenylate cyclase
- ASSAY PROCEDURE: Inhibition of CRF-stimulated adenylate cyclase activity (rat frontal cortex)
- Assay type: biochemical
- CONDITION LABEL: Table II, Formula II (disulfides); 1 μM oCRF; 37° C., 10 minutes
- Excerpt: CRF antagonist activity is established by the ability of the compounds to antagonize CRF-stimulated adenylate cyclase activity, it having been established that CRF receptors are coupled to a guanine nucleotide regulatory protein that activates adenylate cyclase [G. Aguilera et al., Neuroendocrinology, 43, 79 (1986); G. Battaglia et al., Synapse, 1, 572 (1987)]. […]
pIC50: −log10 of the molar value. Where a name gives a salt, the structure may show the parent alone.
METRIC: pIC50

Consider the worked cases shown below.
>>> recorded_number("CCn1c(C)c(SSc2c(C)n(CC)n(-c3ccc(Cl)c(Cl)c3)c2=O)c(=O)n1-c1ccc(Cl)c(Cl)c1 [Formula II: 3,4-Cl2 Ph, C2 H5, CH3]")
5.37
>>> recorded_number("Cc1c(SSc2c(C)n(C)n(-c3ccccc3)c2=O)c(=O)n(-c2ccccc2)n1C [Formula II: Ph, CH3, CH3, HCl]")
5.60
>>> recorded_number("CCn1c(C)c(SSc2c(C)n(CC)n(Cc3ccccc3)c2=O)c(=O)n1Cc1ccccc1 [Formula II: CH2 Ph, C2 H5, CH3]")
5.42

(I) CCc1c(SSc2c(CC)n(C)n(-c3ccccc3)c2=O)c(=O)n(-c2ccccc2)n1C [Formula II: Ph, CH3, C2 H5]
(II) CCn1c(C)c(SSc2c(C)n(CC)n(-c3ccccc3)c2=O)c(=O)n1-c1ccccc1 [Formula II: Ph, C2 H5, CH3]
Prompt: Hi, I'm comparing I with II and wondering which one has the bigger number for pIC50. Any idea? Please indicate the selected item by its label.
Completion: II
(II: 6.00, I: 5.48)

###

- TGT: CRF receptor (Rattus norvegicus, UniProt P35353)
- Construct: the cerebral cortex was removed and the tissue homogenized; from tissue; host or cells: cerebral cortex membranes of male Sprague-Dawley rats
- Sequence (P35353 24-415): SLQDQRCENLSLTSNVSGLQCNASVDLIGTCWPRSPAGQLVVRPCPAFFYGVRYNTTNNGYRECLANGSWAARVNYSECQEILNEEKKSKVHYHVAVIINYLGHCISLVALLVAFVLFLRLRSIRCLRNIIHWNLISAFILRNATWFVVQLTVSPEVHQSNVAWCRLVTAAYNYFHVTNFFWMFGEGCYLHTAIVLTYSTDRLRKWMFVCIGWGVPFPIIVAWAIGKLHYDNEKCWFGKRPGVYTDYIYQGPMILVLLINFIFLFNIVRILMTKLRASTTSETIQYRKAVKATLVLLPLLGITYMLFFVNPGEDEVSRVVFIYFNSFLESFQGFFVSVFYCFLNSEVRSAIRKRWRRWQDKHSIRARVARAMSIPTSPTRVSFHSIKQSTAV
- ASSAY PROCEDURE: In vitro receptor binding: inhibition of specific binding of [125I]tyrosine-oCRF to rat cerebral cortex membranes
- CONDITION LABEL: Table I, Formula I; [125I]Tyr-oCRF 50-100 pM; 2 hours at room temperature; read-out: Inhibition of CRF Binding, Rat Cerebral Cortex Membrane, IC50
pIC50: −log10 of the molar value.
METRIC: pIC50

Please review the following examples before continuing.
>>> recorded_number("Cc1c(SC#N)c(=O)n(-c2ccc(I)cc2)n1C")
5.19
>>> recorded_number("CC(=O)Nc1cccc(-c2c(SC#N)c(=O)n(-c3ccccc3)n2C)c1")
5.19

(I) Cc1c(SC#N)c(=O)[nH]n1-c1ccc([N+](=O)[O-])cc1
(II) Cc1c(SC#N)c(=O)n(-c2ccccc2)n1-c1ccccc1
Prompt: Select one. Lower pIC50: I or II Kindly state the label of the option you pick.
Completion: I
(I: 4.49, II: 4.79)

###

- TGT: CRF receptor (Rattus norvegicus)
- Construct: the cerebral cortex was removed and the tissue homogenized; from tissue; host or cells: cerebral cortex membranes of male Sprague-Dawley rats
- Sequence (P35353 24-415): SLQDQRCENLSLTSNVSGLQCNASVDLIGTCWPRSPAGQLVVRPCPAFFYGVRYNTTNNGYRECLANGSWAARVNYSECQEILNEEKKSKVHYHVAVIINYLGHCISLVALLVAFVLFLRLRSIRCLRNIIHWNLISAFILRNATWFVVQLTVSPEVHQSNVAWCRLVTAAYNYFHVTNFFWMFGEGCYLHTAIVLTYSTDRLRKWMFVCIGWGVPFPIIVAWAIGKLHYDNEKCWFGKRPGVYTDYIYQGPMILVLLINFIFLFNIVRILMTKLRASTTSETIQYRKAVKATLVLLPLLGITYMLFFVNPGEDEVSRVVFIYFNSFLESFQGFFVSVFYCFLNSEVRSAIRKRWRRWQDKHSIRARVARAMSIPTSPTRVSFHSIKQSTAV
- ASSAY PROCEDURE: In vitro receptor binding: inhibition of specific binding of [125I]tyrosine-oCRF to rat cerebral cortex membranes
- CONDITION LABEL: Table II, Formula II (disulfides); [125I]Tyr-oCRF 50-100 pM; 2 hours at room temperature; read-out: Inhibition of CRF Binding, Rat Cerebral Cortex Membrane, IC50
Where a name gives a salt, the structure may show the parent alone.
METRIC: IC50 (µM)

>>> recorded_number("CCc1c(SSc2c(CC)n(C)n(-c3ccccc3)c2=O)c(=O)n(-c2ccccc2)n1C")
3.3

(A) Cc1c(SSc2c(C)n(C)n(-c3ccc4ccccc4c3)c2=O)c(=O)n(-c2ccc3ccccc3c2)n1C [Formula II: 2-Naphthyl, CH3, CH3, HCl]
(B) CCn1c(C)c(SSc2c(C)n(CC)n(-c3ccccc3)c2=O)c(=O)n1-c1ccccc1
Prompt: Thinking about recorded IC50 values, which is higher, A or B ? Respond with the label that goes with your answer.
Completion: B

###

- TGT: CRF receptor (Rattus norvegicus, UniProt P35353)
- Construct: the cerebral cortex was removed and the tissue homogenized; from tissue; host or cells: cerebral cortex membranes of male Sprague-Dawley rats
- ASSAY PROCEDURE: In vitro receptor binding: inhibition of specific binding of [125I]tyrosine-oCRF to rat cerebral cortex membranes
- CONDITION LABEL: Table II, Formula II (disulfides); [125I]Tyr-oCRF 50-100 pM; 2 hours at room temperature; read-out: Inhibition of CRF Binding, Rat Cerebral Cortex Membrane, IC50
Where a name gives a salt, the structure may show the parent alone.
METRIC: IC50 (µM)

Known IC50 results, listed for orientation:
>>> recorded_number("Cc1c(SSc2c(C)n(C)n(-c3ccccc3)c2=O)c(=O)n(-c2ccccc2)n1C [Formula II: Ph, CH3, CH3]")
2.2
>>> recorded_number("CCn1c(C)c(SSc2c(C)n(CC)n(Cc3ccccc3)c2=O)c(=O)n1Cc1ccccc1 [Formula II: CH2 Ph, C2 H5, CH3]")
4.3
>>> recorded_number("Cn1c(CN2CCOCC2)c(SSc2c(CN3CCOCC3)n(C)n(-c3ccccc3)c2=O)c(=O)n1-c1ccccc1 [Formula II: Ph, CH3, MorCH2, 2HCl]")
8.2

(A) Cc1c(SSc2c(C)n(C)n(-c3ccccc3)c2=O)c(=O)n(-c2ccccc2)n1C [Formula II: Ph, CH3, CH3, HCl]
(B) CCn1c(C)c(SSc2c(C)n(CC)n(-c3ccc(Cl)c(Cl)c3)c2=O)c(=O)n1-c1ccc(Cl)c(Cl)c1 [Formula II: 3,4-Cl2 Ph, C2 H5, CH3]
(C) Cc1c(SSc2c(C)n(C)n(-c3cccc(Cl)n3)c2=O)c(=O)n(-c2cccc(Cl)n2)n1C [Formula II: 6-Cl-2-Pyr, CH3, CH3]
Prompt: Given 3 compounds, produce a descending ranking by IC50. Answer by listing the labels in the order asked for.
Completion: A, C, B
(A: 6.4 µM, C: 4.3 µM, B: 2.9 µM)
